- system: T1, rhIL-21-His (AB235875-1001, Abcam) (human, UniProt Q9HBE4 30-162)
- T1 construct: bought; not shown: His tag, length and position not described
- T1 sequence (Q9HBE4 30-162 limits assumed): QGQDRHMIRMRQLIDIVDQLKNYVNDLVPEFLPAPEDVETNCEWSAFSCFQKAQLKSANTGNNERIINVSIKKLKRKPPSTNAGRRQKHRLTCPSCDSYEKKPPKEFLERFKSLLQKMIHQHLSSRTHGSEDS
- experimental-details: SPR, Fab on captured rhIL-21-His

{"binder": "IOO459 Fab (Fab, V domains shown, Fab) VH: QVQLQESGPGLVKPSETLSLTCTVSGGSISSDYWGWIRQPPGKGLEWIGYISSRGSTNYNPSLKRRVTISVDTSRNQFSLKLSSVTAADTAVYYCARSAGVADFDFWGQGTLVTVSS VL: DIQMTQSPSSVSASVGDRVTITCRASQGISSWLAWYQHKPGKAPKLLIYVASSLQSGVPSRFSGSGSGTDFTLTISSLQPEDFATYYCQQANSAPLTFGGGTKVEIK", "koff": "0.0222 s⁻¹"}
